Assay: Concentration required for 50% death of HB611 cells
Type: cell-based
Conditions: human, read-out: LD50 of HB611 cell
measure_name: CC50

compound | recorded_value
CC(=O)OCCOP(=O)(COCCn1cnc2c(N)ncnc21)OCCOC(C)=O [Example 17] | > 1000 µM
CC(=O)NCCOP(=O)(COCCn1cnc2c(N)ncnc21)OCCNC(C)=O [Reference Example 1, reference compound] | > 1000 µM
CCCCC(=O)OCCOP(=O)(COCCn1cnc2c(N)ncnc21)OCCOC(=O)CCCC [Example 18] | 47 µM
COP(=O)(COCCn1cnc2c(N)ncnc21)OCC(F)(F)F (centres unmarked) [Example 12] | > 1000 µM
Nc1nc(Cl)c2ncn(CCOCP(=O)(OCC(F)(F)F)OCC(F)(F)F)c2n1 [Example 3] | 399 µM
Nc1ncnc2c1ncn2CCOCP(=O)(OCC(F)(F)F)OCC(F)(F)F [Example 1] | > 1000 µM
Nc1nc(N)c2ncn(CCOCP(=O)(OCC(F)(F)F)OCC(F)(F)F)c2n1 [Example 2] | 840 µM
Nc1ncnc2c1ncn2CCOCP(=O)(OCCO)OCCO [Reference Example 2, reference compound] | > 1000 µM

* * *

# inhibition annotations
Tested on: HBV
Experiment: Inhibition of HBV growth (HBV-DNA synthesis in HB611 cells, southern blotting)
Format: cell-based
Set-up: dose or concentration left out as unconfirmed
Conditions: Hepatitis B virus, 408 h, DNA recovered day 17

compound | study_system | inhibition
Cc1ccc(Sc2nc(N)nc3c2ncn3CCOCP(=O)(OCC(F)(F)F)OCC(F)(F)F)cc1 [Example 24] | HBV | 99.9%
Nc1ncnc2c1ncn2CCOCP(=O)(OCCO)OCCO [Reference Example 2, reference compound] | HBV | 31%
Cn1c(N)nc2c(ncn2CCOCP(=O)(OCC(F)(F)F)OCC(F)(F)F)c1=O [Example 26] | HBV | 99.9%
Nc1nc(N)c2nnn(CCOCP(=O)(OCC(F)(F)F)OCC(F)(F)F)c2n1 [Example 5] | HBV | 97.2%
Nc1nc2c(ncn2CCOCP(=O)(OCC(F)(F)F)OCC(F)(F)F)c(=O)[nH]1 [Example 20] | HBV | 99.9%
Nc1ncnc2c1ncn2CCOCP(=O)(OCCOc1ccccc1)OCCOc1ccccc1 [Example 15] | HBV | 59.7%
Nc1nc2ncn(CCOCP(=O)(OCC(F)(F)F)OCC(F)(F)F)c2c(=O)[nH]1 [Example 21] | HBV | 71.3%
Nc1ncnc2c1ncn2CCOCP(=O)(OCC(F)(F)F)OCC(F)(F)F [Example 1] | HBV | 91.5%

* * *

Tested on: HBV
Assay: Inhibition of HBV growth (HBV-DNA synthesis in HB611 cells, southern blotting)
Type: cell-based
Set-up: dose or concentration left out as unconfirmed
Conditions: Hepatitis B virus, 408 h, DNA recovered day 17
Hi, to clarify the labels: Yes covers inhibition from 80% upward, No covers anything below 80%.

smi | study_system | label_value
Nc1ncnc2c1ncn2CCOCP(=O)(OCCOCc1ccccc1)OCCOCc1ccccc1 | HBV | No
Cc1ccc(Sc2nc(O)nc3c2ncn3CCOCP(=O)(OCC(F)(F)F)OCC(F)(F)F)cc1 | HBV | Yes
CCCCC(=O)OCCOP(=O)(COCCn1cnc2c(N)ncnc21)OCCOC(=O)CCCC | HBV | No
Nc1nc2c(ncn2CCOCP(=O)(OCC(F)(F)F)OCC(F)(F)F)c(=S)[nH]1 | HBV | Yes
Nc1c2ncn(CCOCP(=O)(OCC(F)(F)F)OCC(F)(F)F)c2nc[n+]1[O-] | HBV | No
